Test system: OMA-BL1 cells
protocol.details: Growth rate / doubling time of OMA-BL1 cells cultured with oligo
Format: cell-based, human
measurement.conditions: 2.5 μM oligo, observed for 5 days
endpoint.label: Doubling Time (Hours of Doubling) (h)

{"substance": "5'-d(TCCTAGGTCCATGTCGTACGC)-3' (DNA, backbone not given here) [reference compound]", "tested.on": "OMA-BL1 cells", "endpoint.label": "Doubling Time (Hours of Doubling)", "op": "=", "result": 38}
{"substance": "5'-d(GTTGAGGGG)-3' (DNA, backbone not given here)", "tested.on": "OMA-BL1 cells", "endpoint.label": "Doubling Time (Hours of Doubling)", "op": "=", "result": 60.71}
{"substance": "5'-d(TTAGGG)-3' (phosphorothioate backbone) [6-mer oligonucleotide which mimics the telomere motif]", "tested.on": "OMA-BL1 cells", "endpoint.label": "Doubling Time (Hours of Doubling)", "op": ">", "result": 100}
{"substance": "5'-d(TTAGGGTTAGGGTTAGGG)-3' (DNA, backbone not given here)", "tested.on": "OMA-BL1 cells", "endpoint.label": "Doubling Time (Hours of Doubling)", "op": ">", "result": 100}

----------
Tested on: OMA-BL1 cells
protocol.details: Growth rate / doubling time of OMA-BL1 cells cultured with oligo
Format: cell-based, human
measurement.conditions: 1.25 μM oligo, observed for 5 days
Each entry below lists one item and its recorded Doubling Time (Hours of Doubling) value.

{"substance": "5'-d(TTAGGGTTAGGGTTAGGG)-3' (DNA, backbone not given here)", "result.units": "h", "op": ">", "Doubling Time (Hours of Doubling)": 100}
{"substance": "5'-d(TTAGGG)-3' (phosphorothioate backbone) [6-mer oligonucleotide which mimics the telomere motif]", "result.units": "h", "op": "=", "Doubling Time (Hours of Doubling)": 59.4}
{"substance": "5'-d(TTAGGGTTAGGG):' (DNA, backbone not given here) [two telomere repeats]", "result.units": "h", "op": ">", "Doubling Time (Hours of Doubling)": 100}
{"substance": "5'-d(GTTGAGGGG)-3' (DNA, backbone not given here)", "result.units": "h", "op": "=", "Doubling Time (Hours of Doubling)": 49.4}
{"substance": "5'-d(TGTGAG)-3' [reference compound]", "result.units": "h", "op": "=", "Doubling Time (Hours of Doubling)": 42.4}
{"substance": "5'-d(TTAGGGTTAGGGTTAGGGTTAGGG)-3'", "result.units": "h", "op": ">", "Doubling Time (Hours of Doubling)": 100}

----------
Each entry below lists one item and its recorded Doubling Time (Hours of Doubling) value.
Test system: OMA-BL1 cells
protocol.details: Growth rate / doubling time of OMA-BL1 cells cultured with oligo
Type: cell-based, human
measurement.conditions: 2.5 μM oligo, observed for 5 days
endpoint.label: Doubling Time (Hours of Doubling)

{"substance": "5'-d(TGTGAG)-3' [reference compound]", "result": "40.9 ± 2.3 h"}
{"substance": "5'-d(TTAGGGTTAGGGTTAGGGTTAGGG)-3'", "result": "> 100 h"}
{"substance": "5'-d(TTAGGGTTAGGG):' (DNA, backbone not given here) [two telomere repeats]", "result": "> 100 h"}
